// data source = patent EP0369733A2

Listed here are molecules together with their documented pKa.
# protocol-text: Proton dissociation constants in 0.1 M tetramethylammonium chloride
# protocol-conditions: second value (second protonation), 10 mM Tris titrated with 5 M H₃PO₄
Form field (numeric): enter value without unit.

IN: Identify pKa associated with the molecule "Cc1ccc2c(n1)c(N1CCOCCOCCN(c3cc4oc(-c5ccc(C(=O)O)c(C(=O)O)c5)cc4c4ccc(C)nc34)CCOCC1)cc1oc(-c3ccc(C(=O)O)c(C(=O)O)c3)cc12"
OUT: 6.8

IN: Identify pKa associated with the molecule "CC(=O)Nc1ccc(N2CCOCCOCCN(c3ccc(NC(C)=O)c4cccnc34)CCOCC2)c2ncccc12"
OUT: 5.43

IN: Identify pKa associated with the molecule "COc1cc2cc(-c3ccc(C(=O)O)cc3C(=O)O)oc2cc1N1CCOCCOCCN(c2cc3oc(-c4ccc(C(=O)O)cc4C(=O)O)cc3cc2OC)CCOCC1"
OUT: 5.19

IN: Identify pKa associated with the molecule "O=C(O)CCC(=O)Nc1ccc(N2CCOCCOCCN(c3ccc(NC(=O)CCC(=O)O)c4cc5ccccc5nc34)CCOCC2)c2nc3ccccc3cc12"
OUT: 6.86

IN: Identify pKa associated with the molecule "COc1cc(NC(C)=O)ccc1N1CCOCCOCCN(c2ccc(NC(C)=O)cc2OC)CCOCC1"
OUT: 5.0

IN: Identify pKa associated with the molecule "CC(=O)Nc1ccc(N2CCOCCOCCN(c3ccc(NC(C)=O)c4ccc(C)nc34)CCOCC2)c2nc(C)ccc12"
OUT: 5.62

IN: Identify pKa associated with the molecule "COc1cc2cc(-c3ccc(C(=O)O)c(C(=O)O)c3)oc2cc1N1CCOCCOCCN(c2cc3oc(-c4ccc(C(=O)O)c(C(=O)O)c4)cc3cc2OC)CCOCC1"
OUT: 5.5

Okay, next one:
IN: Identify pKa associated with the molecule "COc1cc2cc(-c3ncc(C(=O)O)o3)oc2cc1N1CCOCCOCCN(c2cc3oc(-c4ncc(C(=O)O)o4)cc3cc2OC)CCOCC1"
OUT: 4.15

====

# protocol-text: Cation titration followed by absorbance or fluorescence excitation spectra: Mg²⁺ binding
# protocol-conditions: 0.1 M tetramethylammonium chloride, 1-5 mM tris(hydroxymethyl)aminomethane, high pH; read-out: Dissociation constants (Kd) in mM for Mg²⁺
Listed here are compounds together with their documented Kd.
Numeric answer only, unit mM assumed.

Record excerpt, results attached:
IN: Identify Kd associated with the compound "CC(=O)Nc1ccc(N2CCOCCOCCOCCOCC2)c2ncccc12"
OUT: 12

IN: Identify Kd associated with the compound "COc1cc2cc(-c3ccc(C(=O)O)cc3C(=O)O)oc2cc1N1CCOCCOCCN(c2cc3oc(-c4ccc(C(=O)O)cc4C(=O)O)cc3cc2OC)CCOCCOCC1"
OUT: 40

IN: Identify Kd associated with the compound "COc1cc2cc(-c3ncc(C(=O)O)o3)oc2cc1N1CCOCCOCCN(c2cc3oc(-c4ncc(C(=O)O)o4)cc3cc2OC)CCOCC1"
OUT: 63

Okay, next one:
IN: Identify Kd associated with the compound "COc1cc2cc(-c3ccc(C(=O)O)c(C(=O)O)c3)oc2cc1N1CCOCCOCCN(c2cc3oc(-c4ccc(C(=O)O)c(C(=O)O)c4)cc3cc2OC)CCOCC1"
OUT: 18

====

# protocol-text: Cation titration followed by absorbance or fluorescence excitation spectra: Na⁺ binding
# protocol-conditions: association constant; inert background cation (tetramethylammonium)
readout-type: Na⁺ affinity (M⁻¹)
Numeric answer only, unit M⁻¹ assumed.

Record excerpt, results attached:
IN: Identify Na⁺ affinity associated with the compound O=C(O)CCC(=O)Nc1ccc(N2CCOCCOCCN(c3ccc(NC(=O)CCC(=O)O)c4cc5ccccc5nc34)CCOCC2)c2nc3ccccc3cc12 [Compound 2II]
OUT: 3125

IN: Identify Na⁺ affinity associated with the compound Nc1ccc(N2CCOCCOCCOCCOCC2)c(C(=O)O)c1 [Compound 1B]
OUT: 14

IN: Identify Na⁺ affinity associated with the compound COc1cc2cc(-c3ccc(C(=O)O)cc3C(=O)O)oc2cc1N1CCOCCOCCN(c2cc3oc(-c4ccc(C(=O)O)cc4C(=O)O)cc3cc2OC)CCOCC1 [Compound 2PP]
OUT: 166

IN: Identify Na⁺ affinity associated with the compound COc1cc2cc(-c3ncc(C(=O)O)o3)oc2cc1N1CCOCCOCCN(c2cc3oc(-c4ncc(C(=O)O)o4)cc3cc2OC)CCOCC1 [Compound 2OO]
OUT: 20

Okay, next one:
IN: Identify Na⁺ affinity associated with the compound CC(=O)Nc1ccc(N2CCOCCOCCOCCOCC2)c2ncccc12 [Compound 1C]
OUT: 15
